# MEASURED TARGET: UniProtKB P08684
# Sequence (P08684 whole entry): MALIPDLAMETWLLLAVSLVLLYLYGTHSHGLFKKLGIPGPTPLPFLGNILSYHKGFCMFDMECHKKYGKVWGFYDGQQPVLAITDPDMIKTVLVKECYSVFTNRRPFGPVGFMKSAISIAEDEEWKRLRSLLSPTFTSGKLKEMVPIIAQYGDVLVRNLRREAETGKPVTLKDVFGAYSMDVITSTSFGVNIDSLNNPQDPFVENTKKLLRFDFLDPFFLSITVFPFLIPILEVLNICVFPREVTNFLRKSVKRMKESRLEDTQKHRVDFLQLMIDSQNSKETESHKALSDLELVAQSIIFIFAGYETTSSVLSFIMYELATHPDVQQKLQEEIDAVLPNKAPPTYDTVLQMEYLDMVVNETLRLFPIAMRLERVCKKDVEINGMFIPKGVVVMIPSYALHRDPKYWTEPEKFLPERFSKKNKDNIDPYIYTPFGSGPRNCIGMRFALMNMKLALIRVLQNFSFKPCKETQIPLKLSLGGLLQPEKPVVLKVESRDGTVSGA
# TEST PROTOCOL: Inhibition of human recombinant CYP3A4 at 10 uM relative to control
# Assay type: ADME
Documented inhibition at 10 µM across a set of compounds
Answer in %, number only, no unit symbol.

Recorded results for 5 compounds are shown here.
| CHEMICAL SMILES | RESULT |
| --- | --- |
| O=C(NCCN1CC2(COC2)C1)c1ccc2c(c1)C(=O)c1ccc(Nc3ccc(F)cc3F)cc1CC2 | 83.6 |
| COC(=O)CCNC(=O)c1ccc2c(c1)C(=O)c1ccc(Nc3ccc(F)cc3F)cc1CC2 | 68 |
| Nc1ccccc1Nc1ccc2c(c1)CCc1ccc(C(=O)NCCC(=O)O)cc1C2=O | 4.1 |
| O=C(O)CCNC(=O)c1ccc2c(c1)C(=O)c1ccc(Nc3ccc(F)cc3F)cc1CC2 | 54.8 |
| O=C(O)CCCNC(=O)c1ccc2c(c1)C(=O)c1ccc(Nc3ccc(F)cc3F)cc1CC2 | 38.1 |

Enter measured inhibition at 10 µM, system UniProtKB P08684, for the compound shown: COC(=O)CCCNC(=O)c1ccc2c(c1)C(=O)c1ccc(Nc3ccc(F)cc3F)cc1CC2
34.9

----------
# MEASURED TARGET: Mitogen-activated protein kinase 14 (Homo sapiens)
# Sequence (Q16539 whole entry): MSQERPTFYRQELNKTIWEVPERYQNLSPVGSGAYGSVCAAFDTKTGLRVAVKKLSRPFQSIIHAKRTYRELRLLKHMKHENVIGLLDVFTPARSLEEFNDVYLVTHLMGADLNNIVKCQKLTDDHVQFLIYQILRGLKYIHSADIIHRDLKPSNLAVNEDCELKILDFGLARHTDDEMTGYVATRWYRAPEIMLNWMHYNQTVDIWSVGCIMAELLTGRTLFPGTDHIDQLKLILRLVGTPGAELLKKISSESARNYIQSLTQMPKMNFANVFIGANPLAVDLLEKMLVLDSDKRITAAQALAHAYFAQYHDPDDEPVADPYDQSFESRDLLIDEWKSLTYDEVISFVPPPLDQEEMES
# TEST PROTOCOL: Inhibition of human p38 MAPK alpha incubated for 1 hr by photometric method
EXPERIMENTAL ENDPOINT: IC50 (nM)
Give the number; nM is assumed, so skip it.

Some molecules with known IC50 results, for comparison:
| CHEMICAL SMILES | MEASURED TARGET | IC50 [nM] |
| --- | --- | --- |
| O=C(NCCc1ccc(F)cc1)c1ccc2c(c1)C(=O)c1ccc(Nc3ccc(F)cc3F)cc1CC2 | Mitogen-activated protein kinase 14 (Homo sapiens) | 21 |
| CC(C)(C)OC(=O)N1CCN(CCNC(=O)c2ccc3c(c2)C(=O)c2ccc(Nc4ccc(F)cc4F)cc2CC3)CC1 | Mitogen-activated protein kinase 14 (Homo sapiens) | 2.4 |

Annotate the molecule O=C(NCCNCCO)c1ccc2c(c1)C(=O)c1ccc(Nc3ccc(F)cc3F)cc1CC2 with its measured IC50.
1.7

Read off the recorded IC50 for O=C(NCCN1CCNCC1)c1ccc2c(c1)C(=O)c1ccc(Nc3ccc(F)cc3F)cc1CC2
1.3

Input COC(=O)CC[C@H](NC(=O)c1ccc2c(c1)C(=O)c1ccc(Nc3ccc(F)cc3F)cc1CC2)C(=O)OC , output reported IC50.
1.2

Check the records and state IC50 for O=C(N[C@@H]1[C@@H](O)[C@H](O)[C@@H](CO)O[C@H]1O)c1ccc2c(c1)C(=O)c1ccc(Nc3ccc(F)cc3F)cc1CC2
5.2

Give recorded IC50. O=C(NCCc1ccccc1)c1ccc2c(c1)C(=O)c1ccc(Nc3ccc(F)cc3F)cc1CC2
21

Return the recorded IC50 value; entry: Nc1ccccc1Nc1ccc2c(c1)CCc1ccc(C(=O)NCCC(=O)O)cc1C2=O
0.98

Identify the reported IC50 for the following entry. Nc1ccccc1Nc1ccc2c(c1)CCc1ccc(C(=O)N[C@@H](CCC(=O)O)C(=O)O)cc1C2=O
27

----------
# System: Blood
# TEST PROTOCOL: Antiinflammatory activity against LPS-stimulated C57BL/6 mouse whole blood assessed as reduction in IL-6 incubated for 24 hrs by ELISA based method
# Type: functional
# Set-up: scale not given: the % may be the effect or the level left
# CONDITION PARAMETERS: dose 1-100 nM, at 1 to 100 nM
Measured Activity values are reported for all entries that follow.
Provide the reading as a plain figure in %.

Solved entries:
| CHEMICAL SMILES | RESULT |
| --- | --- |
| COC(=O)CCNC(=O)c1ccc2c(c1)C(=O)c1ccc(Nc3ccccc3N)cc1CC2 | 81 |
| O=C(O)CCCNC(=O)c1ccc2c(c1)C(=O)c1ccc(Nc3ccc(F)cc3F)cc1CC2 | 71 |

Indicate its recorded Activity; the compound in question is COC(=O)CCCNC(=O)c1ccc2c(c1)C(=O)c1ccc(Nc3ccc(F)cc3F)cc1CC2
64

State, in one line, measured Activity of COC(=O)CCNC(=O)c1ccc2c(c1)C(=O)c1ccc(Nc3ccc(F)cc3F)cc1CC2
85
